The reader will find reported STEME weed control rating values listed item by item below.
Test system: Stellaria media
Test: Post-emergence test, weed control
Type: in vivo
Conditions: 0.120 kg/ha, 2–4 weeks after treatment, rating 0-100 (100=death), Table 5
Keep it simple and answer with nothing but the number.

>>> value_measured("CCc1cc(Oc2cccc(C(F)(F)F)c2)nc(-c2ccc(C(F)(F)F)cc2)n1 [REF-3]")
85

Task: # input molecule: Cc1nc(-c2ccc(C(F)(F)F)cc2)nc(Oc2cccc(C(F)(F)F)c2)c1C [REF-2] ; wanted: its STEME weed control rating
Output: 55

Task: # input molecule: FC(F)(F)c1ccc(-c2nccc(Oc3cccc(C(F)(F)F)c3)n2)cc1 [TTP] ; wanted: its STEME weed control rating
Output: 70

Task: # input molecule: Cc1cnc(-c2ccc(C(F)(F)F)cc2)nc1Oc1cccc(C(F)(F)F)c1 [REF-1] ; wanted: its STEME weed control rating
Output: 92

* * *

Test system: Matricaria inodora
Assay: Post-emergence test, weed control
Type: in vivo
Details: 0.060 kg/ha, 2–4 weeks after treatment, rating 0-100 (100=death), Table 5
The reader will find reported MATIN weed control rating values listed item by item below.
Keep it simple and answer with nothing but the number.

>>> value_measured("Cc1nc(-c2ccc(C(F)(F)F)cc2)nc(Oc2cccc(C(F)(F)F)c2)c1C [REF-2]")
45

Task: # input compound: CCc1cc(Oc2cccc(C(F)(F)F)c2)nc(-c2ccc(C(F)(F)F)cc2)n1 [REF-3] ; wanted: its MATIN weed control rating
Output: 80

Task: # input compound: Cc1cnc(-c2ccc(C(F)(F)F)cc2)nc1Oc1cccc(C(F)(F)F)c1 [REF-1] ; wanted: its MATIN weed control rating
Output: 75

Task: # input compound: FC(F)(F)c1ccc(-c2nccc(Oc3cccc(C(F)(F)F)c3)n2)cc1 [TTP] ; wanted: its MATIN weed control rating
Output: 90

* * *

Tested on: Polygonum convolvulus
Assay: Pre-emergence test, weed control
Type: in vivo
Conditions: 0.030 kg/ha, 3 weeks after treatment, rating 0-100 (100=death), Table 1
Endpoint label: POLCO weed control rating
Keep it simple and answer with nothing but the number.

>>> value_measured("Cc1nc(-c2ccc(C(F)(F)F)cc2)nc(Oc2cccc(C(F)(F)F)c2)c1C")
0
>>> value_measured("FC(F)(F)c1ccc(-c2nccc(Oc3cccc(C(F)(F)F)c3)n2)cc1")
100

Task: # input molecule: CCc1cc(Oc2cccc(C(F)(F)F)c2)nc(-c2ccc(C(F)(F)F)cc2)n1 ; wanted: its POLCO weed control rating
Output: 70

Task: # input molecule: Cc1cnc(-c2ccc(C(F)(F)F)cc2)nc1Oc1cccc(C(F)(F)F)c1 ; wanted: its POLCO weed control rating
Output: 93

* * *

The reader will find reported MATIN weed control rating values listed item by item below.
Tested on: Matricaria inodora
Assay: Pre-emergence test, weed control
Format: in vivo
Conditions: 0.060 kg/ha, 3 weeks after treatment, rating 0-100 (100=death), Table 1
Keep it simple and answer with nothing but the number.

Task: # input compound: CCc1cc(Oc2cccc(C(F)(F)F)c2)nc(-c2ccc(C(F)(F)F)cc2)n1 ; wanted: its MATIN weed control rating
Output: 99

* * *

Test system: Triticum aestivum variety “Kanzler”
Assay: Post-emergence test, selectivity
Type: in vivo
Conditions: 0.03 kg/ha, 2–4 weeks after treatment, rating 0-100 (100=death), Table 6
The reader will find reported TRZAWK rating (Selectivity) values listed item by item below.
Keep it simple and answer with nothing but the number.

>>> value_measured("Cc1nc(-c2ccc(C(F)(F)F)cc2)nc(Oc2cccc(C(F)(F)F)c2)c1C")
3
>>> value_measured("FC(F)(F)c1ccc(-c2nccc(Oc3cccc(C(F)(F)F)c3)n2)cc1")
2
>>> value_measured("CCc1cc(Oc2cccc(C(F)(F)F)c2)nc(-c2ccc(C(F)(F)F)cc2)n1")
12

Kindly review the next compound as well.
Task: Give the reported TRZAWK rating (Selectivity) for Cc1cnc(-c2ccc(C(F)(F)F)cc2)nc1Oc1cccc(C(F)(F)F)c1 (system: Triticum aestivum variety “Kanzler”).
Output: 18

* * *

System: Triticum aestivum variety “Kanzler”
Assay: Pre-emergence test, selectivity
Assay type: in vivo
Details: 0.060 kg/ha, 3 weeks after treatment, rating 0-100 (100=death), Table 4
Endpoint label: TRZAWK rating (Selectivity)
Keep it simple and answer with nothing but the number.

>>> value_measured("CSc1cc(Oc2ccnc(Cl)c2)nc(-c2ccc(C(F)(F)F)cc2)n1 [REF-7]")
5

Task: # input compound: Cc1cc(Oc2ccnc(Cl)c2)nc(-c2ccc(C(F)(F)F)cc2)n1 [REF-6] ; wanted: its TRZAWK rating (Selectivity)
Output: 10

Task: # input compound: COc1cnc(-c2ccc(C(F)(F)F)cc2)nc1Oc1ccnc(Cl)c1 [REF-8] ; wanted: its TRZAWK rating (Selectivity)
Output: 5

Task: # input compound: Cc1cnc(-c2ccc(C(F)(F)F)cc2)nc1Oc1ccnc(Cl)c1 [REF-4] ; wanted: its TRZAWK rating (Selectivity)
Output: 15

* * *

The reader will find reported HORVW rating (Selectivity) values listed item by item below.
Test system: HORVW
Experiment: Pre-emergence test, selectivity
Format: in vivo
Settings: 0.240 kg/ha, 3 weeks after treatment, rating 0-100 (100=death), Table 2
Keep it simple and answer with nothing but the number.

>>> value_measured("FC(F)(F)c1ccc(-c2nccc(Oc3cccc(C(F)(F)F)c3)n2)cc1")
55

Task: # input compound: CCc1cc(Oc2cccc(C(F)(F)F)c2)nc(-c2ccc(C(F)(F)F)cc2)n1 ; wanted: its HORVW rating (Selectivity)
Output: 60

Task: # input compound: Cc1nc(-c2ccc(C(F)(F)F)cc2)nc(Oc2cccc(C(F)(F)F)c2)c1C ; wanted: its HORVW rating (Selectivity)
Output: 30

Task: # input compound: Cc1cnc(-c2ccc(C(F)(F)F)cc2)nc1Oc1cccc(C(F)(F)F)c1 ; wanted: its HORVW rating (Selectivity)
Output: 65

* * *

The reader will find reported GALAP weed control rating values listed item by item below.
Tested on: Galium aparine
Assay: Pre-emergence test, weed control
Format: in vivo
Settings: 0.120 kg/ha, 3 weeks after treatment, rating 0-100 (100=death), Table 3
Keep it simple and answer with nothing but the number.

>>> value_measured("Cc1cc(Oc2ccnc(Cl)c2)nc(-c2ccc(C(F)(F)F)cc2)n1")
65
>>> value_measured("Cc1nc(-c2ccc(C(F)(F)F)cc2)nc(Oc2ccnc(Cl)c2)c1C")
50
>>> value_measured("COc1cnc(-c2ccc(C(F)(F)F)cc2)nc1Oc1ccnc(Cl)c1")
70

Task: # input compound: CSc1cc(Oc2ccnc(Cl)c2)nc(-c2ccc(C(F)(F)F)cc2)n1 ; wanted: its GALAP weed control rating
Output: 65

Task: # input compound: FC(F)(F)c1ccc(-c2nccc(Oc3ccnc(Cl)c3)n2)cc1 ; wanted: its GALAP weed control rating
Output: 93

* * *

The reader will find reported TRZAWM rating (Selectivity) values listed item by item below.
Test system: Triticum aestivum variety “Monopol”
Experiment: Pre-emergence test, selectivity
Format: in vivo
Conditions: 0.060 kg/ha, 3 weeks after treatment, rating 0-100 (100=death), Table 4
Method: The pre-emergence tests involve spraying a liquid formulation of the compound onto the soil in which the seeds of the plant species mentioned above has recently been sown. The soil used in the tests is a prepared horticultural loam. The formulations used in the tests are prepared from solutions of the test compounds in acetone containing 0.4% by weight of an alkylphenol/ethylene oxide condensate available under the trade mark TRITON X-155. […]
Keep it simple and answer with nothing but the number.

Study these solved cases before continuing.
>>> value_measured("CSc1cc(Oc2ccnc(Cl)c2)nc(-c2ccc(C(F)(F)F)cc2)n1")
5
>>> value_measured("COc1cnc(-c2ccc(C(F)(F)F)cc2)nc1Oc1ccnc(Cl)c1")
3
>>> value_measured("Cc1cc(Oc2ccnc(Cl)c2)nc(-c2ccc(C(F)(F)F)cc2)n1")
8
>>> value_measured("Cc1cnc(-c2ccc(C(F)(F)F)cc2)nc1Oc1ccnc(Cl)c1")
8

Task: # input compound: FC(F)(F)c1ccc(-c2nccc(Oc3ccnc(Cl)c3)n2)cc1 ; wanted: its TRZAWM rating (Selectivity)
Output: 1

* * *

The reader will find reported ALOMY weed control rating values listed item by item below.
System: Alopecurus myosuroides
Test: Pre-emergence test, weed control
Assay type: in vivo
Conditions: 0.060 kg/ha, 3 weeks after treatment, rating 0-100 (100=death), Table 3
Description: The pre-emergence tests involve spraying a liquid formulation of the compound onto the soil in which the seeds of the plant species mentioned above has recently been sown. The soil used in the tests is a prepared horticultural loam. […] In these tests untreated sown soil is used as control. The herbicidal effects of the test compounds are assessed visually three weeks after spraying the soil and are recorded an a 0 to 100 scale. […]
Keep it simple and answer with nothing but the number.

>>> value_measured("Cc1nc(-c2ccc(C(F)(F)F)cc2)nc(Oc2ccnc(Cl)c2)c1C [REF-5]")
15

Task: # input molecule: FC(F)(F)c1ccc(-c2nccc(Oc3ccnc(Cl)c3)n2)cc1 [CTP] ; wanted: its ALOMY weed control rating
Output: 35

Task: # input molecule: Cc1cnc(-c2ccc(C(F)(F)F)cc2)nc1Oc1ccnc(Cl)c1 [REF-4] ; wanted: its ALOMY weed control rating
Output: 92

Task: # input molecule: Cc1cc(Oc2ccnc(Cl)c2)nc(-c2ccc(C(F)(F)F)cc2)n1 [REF-6] ; wanted: its ALOMY weed control rating
Output: 60

Task: # input molecule: COc1cnc(-c2ccc(C(F)(F)F)cc2)nc1Oc1ccnc(Cl)c1 [REF-8] ; wanted: its ALOMY weed control rating
Output: 35

Task: # input molecule: CSc1cc(Oc2ccnc(Cl)c2)nc(-c2ccc(C(F)(F)F)cc2)n1 [REF-7] ; wanted: its ALOMY weed control rating
Output: 35

These entries and their values trace back to patent US7008905B2.
